study target: SARS-CoV-2 Receptor Binding Domain (RBD) protein (SARS-CoV-2)
assay name: SPR (Carterra LSA), scFv captured via anti-V5, RBD as analyte, 1:1 fit
assay metric: koff (s⁻¹)
Numeric answer only, unit s⁻¹ assumed.

Recorded results for 4 binders are shown here.
COVID19_P24_A09 (scFv, V domains shown) VH: QVQLVQSGAEVKKPGASVKVSCKASGYTFTDYYMQWVRQAPGQGLEWMGWIDPHSGATNYAHSFQGRVTMTRDTSTSTVYMELSSLRSEDTAVYYCARLEGGSYWTGYFDLWGRGTLVTVSS VL: EIVMTQSPATLSVSPGERATLSCRASQSVSSNYLAWYQQKPGQAPRLLIYAVSSRATGIPARFSGSGSGTEFTLTISSLQSEDFAVYYCQQYGSSPLTFGGGTKVEIKR
0.000229
COVID19_P11_H02 (scFv, V domains shown) VH: QVQLVQSGAEVKKPGASVKVSCKASGGTFTSYHMHWVRQAPGQGLEWMGWMNPNSGNTGYALKFQGRVTMTRDTSTSTVYMELSSLRSEDTAVYYCASFERFGELVPETFDYWGQGTLVTVSS VL: DIQMTQSPSSLSASVGDRVTITCRASQGIRNDLAWYQQKPGKAPKLLIYAASSLQSGVPSRFSGSGSGTDFTLTISSLQPEDFATYYCQQSYSTPPTFGQGTKLEIKR
0.00071
COVID19_P24_D09 (scFv, V domains shown) VH: QVQLVQSGAEVKKPGASVKVSCKASGGTFSSYAISWVRQAPGQGLEWMGIVNPSSGSTTYAQKFQGRVTMTRDTSTSTVYMELSSLRSEDTAVYYCARVRGSAAIAMMDVWGQGTTVTVSS VL: DIQMTQSPSSLSASVGDRVTITCRASQDIRNELGWYQQKPGKAPKLLIYAASSLQSGVPSRFSGSGSGTDFTLTISSLQPEDFATYYCQQSYSTPPWTFGQGTKLEIKR
5.7e-05
COVID19_P24_C06 (scFv, V domains shown) VH: QVQLVQSGAEVKKPGASVKVSCKASGYIFTSYPIHWVRQAPGQGLEWMGWMNPNSGNTGYAQKFQGRVTMTRDTSTSTVYMELSSLRSEDTAVYYCARDRGSYDTDAFDIWGQGTMVTVSS VL: DIQMTQSPSSLSASVGDRVTITCRASQDISNYLNWYQQKPGKAPKLLIYAASNLQSGVPSRFSGSGSGTDFTLTISSLQPEDFATYYCQQANSFPSTFGQGTKLEIKR
5.7e-05

As a next step, examine the binder that follows.
The binder COVID19_P23_F10 (scFv, V domains shown) VH: QVQLVQSGAEVKKPGASVKVSCKASGDTFSNYGISWVRQAPGQGLEWMGWMNPNSGGTNYAQKFQGRVTMTRDTSTSTVYMELSSLRSEDTAVYYCAIGTTVVTPFGYWGQGTLVNVSS VL: EIVMTQSPATLSVSPGERATLSCRASESVSSRYLAWYQQKPGQAPRLLIYGASTRATGIPARFSGSGSGTEFTLTISSLQSEDFAVYYCQQGYKNPPTFGQGTKVEIKR showed koff equal to 0.00077
